Catalogue of compounds with associated GI50
Test system: SNB-19
experiment.description: NCI tumour cell line growth inhibition, 48 h
Activity calls are given as the source filed them. Rule as the data show it: active = GI50 up to about 1.1 µM and inactive = higher.

Below, each entry is followed by its recorded GI50 result.
CN(C)c1ccc(/C=N\NC(=O)Nc2cccc3ccccc23)cc1	2.46 µM (inactive)
COc1cc2c3c(n(C)c(=O)c2cc1OC)-c1cc2c(cc1/C3=C/CCCCBr)OCO2	> 100 µM (inactive)
C=CC/N=C1\N=C(C)C(C(=O)OCC)S1 (stereo unspecified)	> 100 µM (inactive)

// field: GI50; key: N=c1oc2c(Cl)cc(Cl)cc2cc1C(=O)Nc1ccccn1 ; value = 34.7 µM (inactive)

// field: GI50; key: CC(C)(c1ccc(Oc2ccc(C#N)c(C#N)c2)cc1)c1ccc(Oc2ccc(C#N)c(C#N)c2)cc1 ; value = > 10 µM (inactive)

// field: GI50; key: CCOC(=O)C(Cc1ccc(O)cc1)Nc1nc(=O)c2c(=O)oc(Cl)cc2o1 (stereo unspecified) ; value = 10.8 µM (inactive)

###

Catalogue of compounds with associated GI50
Tested on: OVCAR-3
experiment.description: NCI tumour cell line growth inhibition, 48 h
Calls of active or inactive are those of the source. Rule as the data show it: active = GI50 up to about 1.1 µM and inactive = higher.

COC(=O)CC1C=CC(C)(OC)OO1 (stereo unspecified)	87.7 µM (inactive)
CCN(CC)CCn1c(=O)c2ccccc2n2c3c(=O)n(C)c(=O)n(C)c3nc12	4.06 µM (inactive)
N#Cc1c(-c2ccccc2)cc(Nc2ccc(F)cc2)n2c1nc1ccccc12	3.13 µM (inactive)
FC1(F)ON2CCc3ccccc3C2[C@H]1c1ccccc1 (stereo partly specified)	21 µM (inactive)
C/C=C\C(C)=C/C(C)C(=O)CC(O)CC1CC(=O)NC(=O)C1 (stereo unspecified)	22.3 µM (inactive)

Then there is this compound:
// field: GI50; key: O=C(CCn1ccnc1[N+](=O)[O-])NCCCn1ccnc1[N+](=O)[O-] ; value = > 100 µM (inactive)

###

Tested on: SK-MEL-28
experiment.description: NCI tumour cell line growth inhibition, 48 h
Active and inactive are the calls of the source. Rule as the data show it: active = GI50 up to about 1.1 µM and inactive = higher.
Catalogue of compounds with associated GI50

CC1=Nc2ccccc2SC(c2c(Cl)cccc2Cl)C1 (stereo not drawn)	1.36 µM (inactive)

// field: GI50; key: Cc1cccc2c1CC(C1OC(=O)c3ccccc31)C2=O (stereo not drawn) ; value = > 100 µM (inactive)

// field: GI50; key: C[N+]12C=CC=C1C(N1CCCC1)c1scc(-c3ccc(Br)cc3)c12 (stereo not drawn) ; value = 19 µM (inactive)

###

Tested on: SK-MEL-28
experiment.description: NCI tumour cell line growth inhibition, 48 h
Calls of active or inactive are those of the source. Rule as the data show it: active = GI50 up to about 1.1 µM and inactive = higher.
endpoint.label: GI50

Below, each entry is followed by its recorded GI50 result.
O=c1c2c(sc3ccccc13)NCN(CCc1ccccc1)C2	34.9 µM (inactive)
O=c1[nH]nc(-c2ccccc2)n1Nc1ccccc1	> 100 µM (inactive)
CN(C)CCCNc1ccc2nnn3c4ccc(OC(=O)c5ccccc5)cc4c(=O)c1c23	15.8 µM (inactive)
Cc1nn(C(=O)c2ccccc2O)c2c1C(c1ccc([N+](=O)[O-])cc1)SC(=N)N2 (stereo not given)	> 10 µM (inactive)

// field: GI50; key: COc1ccc(N2C(=O)C3c4[nH]c5ccccc5c4C4CC(C)(C)CC(C)(C)C4C3C2=O)cc1 (stereo not given) ; value = 14.1 µM (inactive)

// field: GI50; key: Cc1c(Cl)ccc2c(=O)c3cccc(CC(=O)O)c3oc12 ; value = > 100 µM (inactive)

// field: GI50; key: CCOC(=O)C1CCC(=O)N1C(=O)c1cccc(Cl)c1 (stereo not given) ; value = > 100 µM (inactive)
